Give measured Growth Rate for each item. Keep answers brief.
Test system: Fibroblast
Experiment Description: Incucyte cell viability with human fibroblast; also: filed as whole numbers so only -1 and 0 and 1 occur
Assay type: toxicity, cell-based
Test Context: 6 h, 10 µM, compound concentration 10 uM, replicate number 1, timepoint 6 hours
Answers are plain numbers.

Examples with their reported Growth Rate follow.
- Compound: "CCOP(=O)(OCC)C(=Cc1cc(C(C)(C)C)c(O)c(C(C)(C)C)c1)P(=O)(OCC)OCC"
  Growth Rate: 0
- Compound: "Cc1cc(OCC(=O)O)cc(C)c1Cc1ccc(O)c(C(C)C)c1 [SOBETIROME]"
  Growth Rate: -1

Now take the following compound into account.
IN: Give Fibroblast Growth Rate for the following compound: c1cc(CN2CCCNCCNCCCNCC2)ccc1CN1CCCNCCNCCCNCC1 [PLERIXAFOR]
OUT: 1
